I'd be grateful if you could share measured pIC50 for these entries.
assay.overview: Antiproliferative activity against vincristine-resistant human HCT8 cells after 48 hrs by SRB method
Assay type: functional, cell-based
condition.description: HCT-8, 48 h
In plain terms, pIC50 is the concentration in mol/L turned into minus its base-10 logarithm.

What does the data say about its pIC50? Entry: COc1ccc(/C=C/C(=O)c2ccccc2-c2cc(OC)c(OC)c(OC)c2)cc1O 5.70

# input compound: COc1ccc(/C=C/C(=O)c2ccccc2-c2cccc(F)c2)cc1O ; wanted: its pIC50 7.24

Request the reported pIC50 associated with COc1ccc(/C=C/C(=O)c2ccccc2-c2cccc(F)c2)cc1 6.66

Item under review: COc1ccc(/C=C/C(=O)c2ccccc2-c2ccc(F)cc2)cc1 . Reported pIC50? 6.64

----------
Tested on: HepG2
assay.overview: Antiproliferative activity against human HepG2 cells after 48 hrs by SRB method
Type: functional, cell-based
condition.description: HepG2, 48 h
parameter.measured: IC50 (nM)
All answers are understood in nM, so give the number only.

Please look up its IC50: CN(C)c1ccc(/C=C/C(=O)c2ccccc2-c2ccc(F)cc2)cc1 47

Request the reported IC50 associated with COc1ccc(/C=C/C(=O)c2ccccc2-c2ccc(OC)c(OC)c2)cc1OC 3200

Bench note: what IC50 did COc1cc(C(=O)/C=C/c2ccccc2-c2ccc(F)cc2)cc(OC)c1OC show? 12000

# get_value(readout='IC50', item= COc1ccc(/C=C/C(=O)c2ccccc2-c2cccc(F)c2)cc1OC ) 150

Recorded IC50 for COc1ccc(/C=C/C(=O)c2ccccc2-c2ccc(F)cc2)cc1OC , please? 95

GET /values?readout=IC50&item= COc1ccc(C(=O)/C=C/c2ccccc2-c2ccc(F)cc2)cc1OC 6600

Give the measured IC50 of COc1cc(/C=C/C(=O)c2ccccc2-c2ccc(F)cc2)ccc1O . 2800

Which value of IC50 has been reported for COc1ccc(OC)c(/C=C/C(=O)c2ccccc2-c2ccc(OC)c(OC)c2)c1 in the records? 2100

Reported IC50 for COc1ccc(OC)c(/C=C/C(=O)c2ccccc2-c2ccc(F)cc2)c1 : what is it? 520

Could you tell me which IC50 is on file for COc1cc(C(=O)/C=C/c2ccccc2-c2ccc(F)nc2)ccc1O ? 9900

What does the record list as IC50 for COc1ccc(C(=O)/C=C/c2ccccc2-c2ccc(F)cc2)cc1O ? 190

What does the record list as IC50 for COc1ccc(-c2ccccc2C(=O)/C=C/c2ccc(F)cc2)cc1OC ? 4300

# input compound: O=C(/C=C/c1ccccc1-c1ccc(F)cc1)c1cccc(O)c1 ; wanted: its IC50 4200

Suppose we examine the compound COc1ccc(C(=O)/C=C/c2ccccc2-c2ccc(F)nc2)cc1 ; what IC50 value has been reported? 8200

Quick one: IC50 for COc1ccc(/C=C/C(=O)c2ccccc2-c2ccc(F)cc2)cc1B(O)O ? 30

Request the reported IC50 associated with COc1ccc(/C=C/C(=O)c2ccccc2-c2ccc(F)cc2)cc1O 23

Can you share its IC50? I mean this compound: COc1cccc(/C=C/C(=O)c2ccccc2-c2ccc(F)cc2)c1OC 5000

Look up IC50 for this compound: COc1ccc(-c2ccccc2C(=O)/C=C/c2ccc(Br)cc2)cc1OC 3300

What does the record list as IC50 for COc1ccc(/C=C/C(=O)c2ccccc2-c2ccc(F)nc2)cc1OC ? 1000

So what does the record say about IC50 for CC(=O)O[C@H]1C(=O)[C@@]2(C)[C@H]([C@H](OC(=O)c3ccccc3)[C@]3(O)C[C@H](OC(=O)[C@H](O)[C@@H](NC(=O)c4ccccc4)c4ccccc4)C(C)=C1C3(C)C)[C@]1(OC(C)=O)CO[C@@H]1C[C@@H]2O ? 28

So what does the record say about IC50 for COc1ccc(C(=O)/C=C/c2ccccc2-c2ccc(F)nc2)cc1OC ? 17000

Item COc1cc(C(=O)/C=C/c2ccccc2-c2ccc(F)cc2)ccc1O has what recorded IC50? 3100

Which IC50 value is on record for COc1ccc(/C=C/C(=O)c2ccccc2-c2ccc(OC)c(OC)c2OC)cc1O ? 230

What does the data say about its IC50? Entry: COc1ccc(C(=O)/C=C/c2ccccc2-c2ccc(F)nc2)cc1O 1800

// returns reported IC50 for input COc1ccc(/C=C/C(=O)c2ccccc2-c2cc(OC)c(OC)c(OC)c2)cc1O 190

What measured IC50 goes with Cc1ccc(/C=C/C(=O)c2ccccc2-c2ccc(F)cc2)o1 ? 12000

Data request, read-out IC50, for O=C(/C=C/c1ccccc1-c1ccc(F)nc1)c1cccc(O)c1 6400

Would you kindly share the measured IC50 for COc1ccc(/C=C/C(=O)c2ccccc2-c2cccc(F)c2)cc1O ? 8

# input compound: COc1ccc(/C=C/C(=O)c2ccccc2-c2ccc(F)cc2)cc1 ; wanted: its IC50 93
